# credit: patent US20230263786A1

assay: Phase I interaction study Part 2 Arm 2: pravastatin; type: in vivo, human; conditions: both sexes, human, plasma, oral; Treatment P + V: pravastatin 40 mg + vadadustat 600 mg QD; read-out: AUC0-last, Geometric LSM
measured.endpoint: AUC(0-t) (µg·h/mL)
Respond numerically; units are µg·h/mL and should not be typed.

[in] Value lookup for AUC(0-t); key = `CC[C@H](C)C(=O)O[C@H]1C[C@H](O)C=C2C=C[C@H](C)[C@H](CC[C@@H](O)C[C@@H](O)CC(=O)O)[C@H]21`
[out] 134

---

assay: Phase I single-dose study, moderate hepatic impairment versus normal hepatic function; type: in vivo, human; conditions: both sexes, human, plasma, oral, 450 mg, single 450 mg, Moderate Hepatic Impairment, mean ± SD; read-out: Cmax, plasma, total
measured.endpoint: Cmax

[in] Return reported Cmax; argument: `O=C(O)CNC(=O)c1ncc(-c2cccc(Cl)c2)cc1O`
[out] 53 µg/mL
